ATTRIBUTE MEASURED: melting point

Worked set:
> print(dat)
                                   compound  value.observed
1  CC(=O)OC1CSC(Oc2ccc(-c3cc4ccccc4o3)nc2)C(OC(C)=O)C1OC(C)=O (stereo unspecified)          179 °C
2  CCNCC(=O)Nc1cc(NS(C)(=O)=O)c(Oc2ccccc2)cc1[N+](=O)[O-]   156 to 157 °C
3                     O=C(O)C=CC(=O)c1ccco1   153 to 155 °C
4           Cc1ccc(C(=O)c2ccc(F)cc2C)c(F)c1     29 to 31 °C
5  CCOC(Cc1ccc(OCc2nc(C(C)(C)C)oc2C)c2ccccc12)C(=O)O (stereo unspecified)   185 to 186 °C
6                  CCCOc1ccc(Br)c(C(C)=O)c1     50 to 52 °C

Record melting point for all entries; do not skip any.
1. COC(=O)Nc1nc2cc(SCC3CC3(Cl)Cl)ccc2[nH]1 (stereo unspecified)
2. O=C1NC(=O)C(Cc2ccc(OCCON=Cc3ccc(-c4ccccc4)nc3)cc2)S1 (stereo unspecified)
3. O=C(O)Cc1cccc(OCCCCc2cc(-c3ccc(C(F)(F)F)cc3)no2)c1
4. CSc1nc(Cl)cc(P(C)(C)=O)n1
5. CCOC(=O)CC(NCCCN(C)C)C(=O)O (stereo unspecified)

1. 211 to 213 °C
2. 102 to 104 °C
3. 134 to 135 °C
4. 172 to 182 °C
5. 168 to 169 °C

---

Hi there, I'd appreciate the recorded melting point for every entry that follows.

Worked set:
> print(dat)
                                   compound  attribute.measured  value.observed
1  O=CN(O)C(CCCO)CS(=O)(=O)c1ccc(-c2ccc(C(F)(F)F)cc2)cc1 (centres undefined)       melting point   139 to 140 °C
2  N#Cc1ccc(C(=O)NCCC(=O)NC(CC(=O)OCc2ccccc2)C(=O)NC(Cc2ccccc2)C(=O)OCc2ccccc2)nc1 (centres undefined)       melting point   157 to 158 °C

Record melting point for all entries; do not skip any.
1. CC1CCN(c2c(-c3c(F)cc(F)cc3F)c(Cl)nc3nc(S)nn23)CC1
2. CCOP(=O)(OCC)c1nc(N2CCCC2)nc(N2CCCC2)n1

["194 °C", "65 to 69 °C"]

---

Hi there, I'd appreciate the recorded melting point for every entry that follows.

Worked set:
> print(dat)
                                   compound  value.observed
1       O=Cc1c[nH]c2cc(C(=O)NCC3CCCC3)ccc12   224 to 225 °C
2                     N#CCCCc1ccc2ccccc2c1O     76 to 78 °C
3  C=Cc1cc(C)cc(C)c1C1=C(O)C2(CCN(OC)CC2)N(C)C1=O   158 to 161 °C
4  COc1ccc(/C=C/C(=O)C2C(=O)CC(c3ccc(OC)cc3)C([N+](=O)[O-])C2C=Cc2ccccc2)cc1 (stereo not given)     88 to 90 °C
5  CCCCCCCCCCCCCCOc1ccc(CC(=O)Nc2cccc(CBr)c2)cc1   116 to 118 °C
6  O=c1cc(-c2ccc(OCCOCCOc3ccc(-c4cc(=O)c5c(O)cc(O)cc5o4)cc3)cc2)oc2cc(O)cc(O)c12   268 to 270 °C

Record melting point for all entries; do not skip any.
1. Cc1nc(Cl)c2c(C)c(C)n(-c3c(C)cc(C)c4nsnc34)c2n1
2. CCCCCCCCCCCCCCCCCCC(N)CN (stereo not given)
3. CCCC1(C)OC(=O)C(c2ccc(F)cc2)=C1c1ccc(S(C)(=O)=O)cc1 (stereo not given)
4. Cc1ccnc2nc(NS(=O)(=O)c3ccccc3Cl)nn12

1. 169 to 171 °C
2. 98 to 101 °C
3. 112 to 113 °C
4. 268 to 269 °C

Record melting point for all entries; do not skip any.
1. O=c1c(CO)cc(-c2ccc3occc3c2)nn1Cc1ccc(F)cc1
2. COc1ccc(NC(=O)Nc2ccc(Cl)c(Cl)c2)cc1NC(=S)Nc1ccc(Cl)c([N+](=O)[O-])c1

1. 158 to 160 °C
2. 162 to 170 °C

---

ATTRIBUTE MEASURED: melting point

Record melting point for all entries; do not skip any.
1. [N-]=[N+]=NCc1cccnc1
2. CN1CCN(CCCN2N=C3C(=Cc4ccccc4)CSCC3C2c2ccccc2)CC1 (configuration not stated)
3. O=CNc1ccc(-c2ccncc2)cc1
4. CP(C)(=O)c1ccc(C(=O)O)cc1
5. COC(=O)[C@@]1(C)Oc2ccccc2N(C)C1=O
6. CN(C)CCCOc1ccc(-c2nnc(Cc3ccc(Oc4ccccc4)cc3)o2)cc1
7. COc1ccc2c(ccc3nc(C(=O)O)cn32)c1
8. Nc1cc(CO)cc(S(N)(=O)=O)c1Cc1ccccc1

1: 40 to 43 °C; 2: 90.5 to 92.5 °C; 3: 188 to 190 °C; 4: 101 °C; 5: 76 to 78 °C; 6: 156 to 158 °C; 7: 265 to 266 °C; 8: 159 to 161 °C

Record melting point for all entries; do not skip any.
1. O=C(OCC(F)(F)C(F)C(F)(F)F)C(F)CF (configuration not stated)
2. CCC1c2ccccc2-c2cc(-c3cccc(O)c3)ccc2N1S(=O)(=O)c1ccc(O)cc1 (configuration not stated)
3. O=[N+]([O-])c1cc(OCc2ccccc2)ccc1CCCl
4. COc1ccc2c(=O)[nH]c(-c3ccc(OCCO)c(-c4ccc(S(C)=O)cc4)n3)nc2c1 (configuration not stated)

["84 to 86 °C", "105 °C", "38 to 40 °C", "266 to 267 °C"]

Record melting point for all entries; do not skip any.
1. CC(=NN(C1=NNC(=O)CC1)c1ccccc1)c1ccccc1
2. CN1CCN(c2cc(Br)cc3c2c(=O)n(Cc2ccccc2)c(=O)n3Cc2ccccc2)CC1
3. Cc1ccc(S(=O)(=O)OCC2Cc3cccc(Nc4ccc(Cl)cc4)c3O2)cc1 (configuration not stated)
4. CCCN1C(=O)N2C[C@@H](Cc3ccccc3)N=C2c2c1nc(SC)n2COC
5. CNN(NC)C(=O)Sc1cccnc1C(=O)OC

1. 176 to 178 °C
2. 80 to 84 °C
3. 132 to 134 °C
4. 110 to 112 °C
5. 56 to 58 °C

---

ATTRIBUTE MEASURED: melting point

> print(dat)
                                   compound  value.observed
1  CC(C)(C)OC(=O)c1ncn2c1cc(N1CCN(C(=O)OC(C)(C)C)CC1)c1cc(Cl)ccc12   246 to 247 °C
2              O=S1(=O)N=CN(C2CC2)c2ccccc21   191 to 194 °C
3  CCN(CCCCCCN)c1ccc2c(=O)[nH][nH]c(=O)c2c1          170 °C

Record melting point for all entries; do not skip any.
1. C#CCOc1cc(-n2nc(C)c(Cl)c2C)c(Cl)cc1Cl
2. O=C(NCCCO)c1c([N+](=O)[O-])ccc(N(CCBr)CCBr)c1[N+](=O)[O-]
3. O=C(NCCCC(F)(F)F)C(c1ccccc1)c1ccccc1
4. CC(Oc1ccc(Oc2ncc(C(F)(F)F)cc2Cl)cc1)C(=O)Nc1ccc(C(F)(F)F)cc1 (centres undefined)
5. CC(=O)Oc1c(CN(C)C)c2c(c3c1OC(C)(C)C3)C(c1ccccc1)=NC(C)(C)C2
6. Cc1cc(C=C2SCNC2=O)cc(C(C)(C)C)c1O
7. O=C(NCc1ccc(Cl)cc1)c1cn2c3c(cc(C#CCO)cc3c1=O)CC2CO (centres undefined)
8. O=C(O)c1cc(C(F)(F)F)cc(Cl)c1-n1cnc(C(F)(F)F)cc1=O

1. 156 to 158 °C
2. 115 to 117 °C
3. 166 °C
4. 140 to 143 °C
5. 125 to 126 °C
6. 162 to 165 °C
7. 224 to 225 °C
8. 225 °C

Record melting point for all entries; do not skip any.
1. CC12CCC3c4ccc(C(=O)O)cc4CCC3C1CCC2C(=O)c1cccnc1 (centres undefined)
2. Cc1cc([C@@H](O)[C@@H](C)N2CCC(O)(c3ccc(F)cc3)CC2)cc(C)c1O[Si](C(C)C)(C(C)C)C(C)C (relative stereo)
3. COc1ccccc1-c1ccc(C(=O)N2Cc3ccc(C(=O)NCc4cccnc4)n3Cc3ccccc32)cc1C
4. CCOc1ncc(C(=O)O)c2c(N)cccc12
5. COC(=O)C1C(=O)CCC1CSc1ccccc1 (centres undefined)
6. COC(=O)c1c(Cc2ccc(C(=O)O)cc2)c(=O)c2ccc(Cl)cc2n1-c1ccccc1
7. Cc1nsc(OCC(Cl)(Cl)Cl)c1[N+](=O)[O-]
8. NC(=O)c1c(N)n(C2CCCC2)c2nc(Nc3ccc(N4CCOCC4)cc3)ncc2c1=O

1: 189 to 192 °C; 2: 186 to 187 °C; 3: 119 to 124 °C; 4: 159 to 165 °C; 5: 41 to 42 °C; 6: 258 to 261 °C; 7: 60 to 61 °C; 8: 265 °C

The reported numbers originate from a melting point compilation (Tetko et al.; mined from patent text by program, amines drawn as free bases though some values may be those of a salt).
